Molecular target: human LAIR-1-CD3ζ chimeric receptor on NFAT-GFP reporter cells (human, UniProt P20963 31-164, limits assumed)
Sequence (P20963 other isoform, or with tags, fused parts or gaps mutant limits assumed): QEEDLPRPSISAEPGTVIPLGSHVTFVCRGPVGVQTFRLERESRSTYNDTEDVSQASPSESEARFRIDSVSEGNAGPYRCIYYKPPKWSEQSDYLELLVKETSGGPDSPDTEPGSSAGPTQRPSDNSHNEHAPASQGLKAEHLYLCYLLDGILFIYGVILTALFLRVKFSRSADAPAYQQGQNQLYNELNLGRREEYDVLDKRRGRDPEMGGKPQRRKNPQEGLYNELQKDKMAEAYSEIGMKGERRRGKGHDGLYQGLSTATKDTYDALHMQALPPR
Experiment: cell-based or functional assay
Measured Attribute: IC50 (read off the curve): % GFP+ human LAIR-1 reporter cells on coated MARCO-his

[
  {
    "Binder": "anti-LAIR-1 antibody ch57D12 (antibody, V domains shown, The prefix 'ch' is not defined) VH: QVQLQQSGAELARPGASVNLSCRASGYSFTSFGISWVKQRTGQGLEWIGEIYPRSDNTFYNEKFKGKATLTADKSSSTAYMELRSLTSEDSAVYFCARHFGSSSFDYWGQGTTLTVSS VL: ENVLTQSPPIMAASLGQKVTMTCSASSSVSSIYFHWYQQKSGTSPKPLIHRASNLASGVPARFSGSGSGTSYSLTISSVEAEDDATYYCQQWSGYPLTFGGGTKLEIK",
    "Reported Result": "~0.3 nM"
  },
  {
    "Binder": "anti-LAIR-1 antibody ch47H1 (antibody, V domains shown, The prefix 'ch' is not defined; detected with anti-human Fc secondary antibody) VH: EVQLVETGGGLVQPKGSLKLSCAASGFTFNINAMNWVRQAPGKGLEWVARIRTKNNNYATFYADSVKDRFTISRDDSQSMLYLQMNNLKTDDTAMYYCVRDRAGFFAYWGQGTPVTVSA VL: DIQMTQSPASQSASLGESVTITCLASQTIGTWLGWYRQKPGKSPQLLIYAATSLADGVPSRFSGSGSGTKFSFKISSLQAEDFVIYYCQQLYSTPLTFGSGTKLEIK",
    "Reported Result": "~0.02 nM"
  }
]
